Procedure Details: CLint in cryopreserved minipig hepatocyte suspensions
Assay type: in vitro ADME
Details: Gottingen, pH 7.4, male
Test Readout: hepatocyte CLint at 1 μM (µL/min/1e6 cells)
Express your answer in µL/min/1e6 cells, writing the number without its unit.

Query string: What value of hepatocyte CLint at 1 μM has been reported for the following compound? `Cc1nn(C)cc1-c1nc2c(N3CCN(Cc4ccc(Cl)cc4)CC3)c(Cl)cnc2[nH]1`
Result string: 7

----------
Procedure Details: CLint in rat liver microsomes
Type: in vitro ADME
Details: Sprague Dawley, female, 1 mg/ml, NADPH
Test Readout: microsomal CLint at 1 μM (µL/min/mg)
Express your answer in µL/min/mg, writing the number without its unit.

Query string: What value of microsomal CLint at 1 μM has been reported for the following molecule? `Cc1nn(C)cc1-c1nc2c(N3CCN(Cc4ccc(Cl)cc4)CC3)c(Cl)cnc2[nH]1`
Result string: 2.7

----------
Procedure Details: CLint in cryopreserved human hepatocyte suspensions
Assay type: in vitro ADME
Details: both sexes, pH 7.4, mixed sex
Test Readout: hepatocyte CLint at 1 μM

Query string: What value of hepatocyte CLint at 1 μM has been reported for the following molecule? `Cc1nn(C)cc1-c1nc2c(N3CCN(Cc4ccc(Cl)cc4)CC3)c(Cl)cnc2[nH]1`
Result string: < 1 µL/min/1e6 cells

----------
Target Or System: FLT3-ITD (Homo sapiens, UniProt P36888, ITD)
Sequence (P36888 564-993): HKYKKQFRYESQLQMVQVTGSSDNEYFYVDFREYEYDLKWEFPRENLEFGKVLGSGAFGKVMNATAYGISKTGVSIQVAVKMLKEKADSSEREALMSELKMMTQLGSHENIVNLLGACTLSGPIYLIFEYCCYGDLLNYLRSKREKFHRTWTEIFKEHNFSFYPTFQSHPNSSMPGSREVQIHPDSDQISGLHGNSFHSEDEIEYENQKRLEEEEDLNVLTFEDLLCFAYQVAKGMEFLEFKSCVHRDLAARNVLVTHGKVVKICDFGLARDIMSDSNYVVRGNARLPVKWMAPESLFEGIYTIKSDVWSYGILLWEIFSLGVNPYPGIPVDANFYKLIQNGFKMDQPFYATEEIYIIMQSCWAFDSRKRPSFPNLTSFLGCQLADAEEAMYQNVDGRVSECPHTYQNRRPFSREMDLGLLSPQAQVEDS
Procedure Details: KINOMEscan Kd determination against FLT3-ITD
Details: 11-point 3-fold dilution series, top concentration 5 μM
Test Readout: pKd
// scale note: pKd = -log10(conc_M); give the bare number

Query string: Param readout= pKd; system= FLT3-ITD (Homo sapiens, UniProt P36888, ITD); entry= `Cc1nn(C)cc1-c1nc2c(N3CCNCC3)c(Cl)cnc2[nH]1` ; returns value.
Result string: 7.09

----------
Procedure Details: CLint in cryopreserved mouse hepatocyte suspensions
Assay type: in vitro ADME
Details: ICR/CD-1, cryopreserved hepatocyte suspensions, pH 7.4, female
Test Readout: hepatocyte CLint at 1 μM

Query string: What value of hepatocyte CLint at 1 μM has been reported for the following molecule? `Cc1nn(C)cc1-c1nc2c(N3CCN(Cc4ccc(Cl)cc4)CC3)c(Cl)cnc2[nH]1`
Result string: 91 µL/min/1e6 cells

----------
Target Or System: Aurora-A (Homo sapiens, UniProt O14965)
Sequence (O14965 whole entry): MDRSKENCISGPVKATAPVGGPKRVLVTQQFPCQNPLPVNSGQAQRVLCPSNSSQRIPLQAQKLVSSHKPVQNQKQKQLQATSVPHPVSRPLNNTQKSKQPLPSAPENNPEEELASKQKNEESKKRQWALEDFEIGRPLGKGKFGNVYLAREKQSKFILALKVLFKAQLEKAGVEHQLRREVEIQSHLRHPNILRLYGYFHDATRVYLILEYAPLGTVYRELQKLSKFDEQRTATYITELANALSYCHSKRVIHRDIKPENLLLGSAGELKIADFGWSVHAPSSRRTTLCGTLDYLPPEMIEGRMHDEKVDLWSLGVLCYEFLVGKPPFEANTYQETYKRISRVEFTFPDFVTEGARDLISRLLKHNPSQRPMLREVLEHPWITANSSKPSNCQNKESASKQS
Test Readout: pKd
// scale note: pKd = -log10(conc_M); give the bare number

Query string: Param readout= pKd; system= Aurora-A (Homo sapiens, UniProt O14965); entry= `Cc1nn(C)cc1-c1nc2c(N3CCNCC3)c(Cl)cnc2[nH]1` ; returns value.
Result string: 7.48

----------
Procedure Details: CLint in dog liver microsomes
Type: in vitro ADME
Details: Beagle, male, 1 mg/ml, NADPH
Test Readout: microsomal CLint at 1 μM (µL/min/mg)
Express your answer in µL/min/mg, writing the number without its unit.

Query string: What value of microsomal CLint at 1 μM has been reported for the following compound? `Cc1nn(C)cc1-c1nc2c(N3CCN(Cc4ccc(Cl)cc4)CC3)c(Cl)cnc2[nH]1`
Result string: 7.4

----------
Target Or System: Aurora-B (Homo sapiens)
Sequence (Q96GD4 whole entry): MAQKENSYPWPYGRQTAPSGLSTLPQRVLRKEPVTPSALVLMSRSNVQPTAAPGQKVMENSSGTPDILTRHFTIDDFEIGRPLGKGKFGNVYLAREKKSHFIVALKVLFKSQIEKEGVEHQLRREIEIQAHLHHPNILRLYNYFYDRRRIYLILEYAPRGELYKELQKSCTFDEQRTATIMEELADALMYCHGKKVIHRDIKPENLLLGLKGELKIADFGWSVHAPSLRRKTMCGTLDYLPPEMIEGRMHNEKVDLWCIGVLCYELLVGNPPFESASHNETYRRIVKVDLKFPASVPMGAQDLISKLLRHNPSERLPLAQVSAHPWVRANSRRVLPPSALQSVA
Test Readout: pKd
// scale note: pKd = -log10(conc_M); give the bare number

Query string: What value of pKd has been reported for the following compound? Cc1nn(C)cc1-c1nc2c(N3CCNCC3)c(Cl)cnc2[nH]1 [Compound M1]
Result string: 6.89

----------
Procedure Details: Protein binding in HLM (Rapid Equilibrium Dialysis)
Assay type: in vitro ADME
Details: human, liver microsomes, HLM 1 mg/ml, dialysis 4 h at 37 °C, read-out: fumic (fraction unbound in microsomes)
Test Readout: fraction unbound at 4 h, 1 μM
Please give the numeric answer without any surrounding text.

Query string: What value of fraction unbound at 4 h, 1 μM has been reported for the following compound? Cc1nn(C)cc1-c1nc2c(N3CCN(Cc4ccc(Cl)cc4)CC3)c(Cl)cnc2[nH]1 [CCT241736]
Result string: 0.0018

----------
Procedure Details: CLint in cryopreserved rat hepatocyte suspensions
Type: in vitro ADME
Details: Sprague Dawley, pH 7.4, female
Test Readout: hepatocyte CLint at 1 μM (µL/min/1e6 cells)
Express your answer in µL/min/1e6 cells, writing the number without its unit.

Query string: What value of hepatocyte CLint at 1 μM has been reported for the following compound? Cc1nn(C)cc1-c1nc2c(N3CCN(Cc4ccc(Cl)cc4)CC3)c(Cl)cnc2[nH]1 [CCT241736]
Result string: 10

----------
Procedure Details: CLint in dog liver microsomes
Type: in vitro ADME
Details: Beagle, female, 1 mg/ml, NADPH
Test Readout: microsomal CLint at 1 μM
Number first, unit second: that is the form wanted.

Query string: What value of microsomal CLint at 1 μM has been reported for the following compound? `Cc1nn(C)cc1-c1nc2c(N3CCN(Cc4ccc(Cl)cc4)CC3)c(Cl)cnc2[nH]1`
Result string: 9.5 µL/min/mg

----------
Procedure Details: Protein binding in rCYP (Rapid Equilibrium Dialysis)
Assay type: in vitro ADME
Details: human, control rCYP 100 pmol/ml, dialysis 4 h at 37 °C, read-out: fuCYP (fraction unbound in rCYP)
Test Readout: fraction unbound at 4 h, 1 μM

Query string: What value of fraction unbound at 4 h, 1 μM has been reported for the following compound? `Cc1nn(C)cc1-c1nc2c(N3CCN(Cc4ccc(Cl)cc4)CC3)c(Cl)cnc2[nH]1`
Result string: 0.0094

----------
Target Or System: FLT3 (Homo sapiens)
Test Readout: pKd
// scale note: pKd = -log10(conc_M); give the bare number

Query string: What value of pKd has been reported for the following molecule? `Cc1nn(C)cc1-c1nc2c(N3CCNCC3)c(Cl)cnc2[nH]1`
Result string: 8.10

----------
Procedure Details: CLint in human liver microsomes
Assay type: in vitro ADME
Details: both sexes, mixed sex, 1 mg/ml, NADPH
Test Readout: microsomal CLint at 1 μM (µL/min/mg)
Express your answer in µL/min/mg, writing the number without its unit.

Query string: What value of microsomal CLint at 1 μM has been reported for the following molecule? Cc1nn(C)cc1-c1nc2c(N3CCN(Cc4ccc(Cl)cc4)CC3)c(Cl)cnc2[nH]1 [CCT241736]
Result string: 7.8
